Numbers sourced from patent US6410573B1.

tested on: papillary muscle of the guinea pig; experiment: Action potential duration (APD90) in the papillary muscle of the guinea pig, shortened by rilmakalim (HOE 234); format: cell-based; conditions: test substance 2 μmol/l, 60 min after its addition; rilmakalim (HOE 234) 1 μg/ml given 30 min before; starting values 165-191, after HOE 234 alone 18-37; 37° C., 1 Hz
# APD90 +HOE 234, 30 min., then +substance, 60 min. >= 80 milliseconds gives 1, anything below gives 0

Problem: hey, is APD90 +HOE 234, 30 min., then +substance, 60 min. for this one >= 80 milliseconds? CNC(=S)NS(=O)(=O)c1cc(CCNC(=O)c2cc(Cl)ccc2OC)ccc1-c1ccc(F)cc1
Solution: 0

Problem: Is reported APD90 +HOE 234, 30 min., then +substance, 60 min. greater than or equal to 80 milliseconds here: CNC(=S)NS(=O)(=O)c1cc(CCNC(=O)c2cc(Cl)ccc2OC)ccc1Sc1ccccc1
Solution: 1

Problem: Does the reported APD90 +HOE 234, 30 min., then +substance, 60 min. for CNC(=S)NS(=O)(=O)c1cc(CCNC(=O)c2cc(Cl)ccc2OC)ccc1-c1ccccc1 fall at or above the 80 milliseconds mark?
Solution: 1

Problem: Please check the record CNC(=S)NS(=O)(=O)c1cc(CCNC(=O)c2cc(Cl)ccc2OC)ccc1-c1ccccn1 and state if its APD90 +HOE 234, 30 min., then +substance, 60 min. is at or above 80 milliseconds.
Solution: 1

Problem: Assess whether reported APD90 +HOE 234, 30 min., then +substance, 60 min. for CNC(=O)NS(=O)(=O)c1cc(CCNC(=O)c2cc(Cl)ccc2OC)ccc1-c1ccco1 sits at 80 milliseconds or higher.
Solution: 1

Problem: # bool: APD90 +HOE 234, 30 min., then +substance, 60 min. of CNC(=O)NS(=O)(=O)c1cc(CCNC(=O)c2cc(Cl)ccc2OC)ccc1-c1cccs1 >= 80 milliseconds
Solution: 0

---

So I've got a bunch of compounds here, and I need their melting point values.

Problem: Any idea what melting point was measured for C#Cc1ccc(CCNC(=O)c2cc(Cl)ccc2OC)cc1S(=O)(=O)NC(=S)NC [Example 19] ?
Solution: 224 to 225 °C

Problem: So what's the measured melting point for this one? CCNC(=S)NS(=O)(=O)c1cc(CCNC(=O)c2cc(Cl)ccc2OC)ccc1-c1ccc(SC)cc1 [Example 10]
Solution: 178 to 179 °C

Problem: Looking for the measured melting point of C=CCc1ccc(CCNC(=O)c2cc(Cl)ccc2OC)cc1S(=O)(=O)NC(=O)NC [Example 18] , can you help?
Solution: 124 to 126 °C

Problem: Which melting point value is on record for CNC(=S)NS(=O)(=O)c1cc(CCNC(=O)c2cc(Cl)ccc2OC)ccc1-c1ccc(OC)cc1 [Example 9] ?
Solution: 185 to 188 °C

Problem: Would you kindly share the measured melting point for CNC(=S)NS(=O)(=O)c1cc(CCNC(=O)c2cc(Cl)ccc2OC)ccc1-c1cccs1 [Example 12] ?
Solution: 189 to 191 °C

---

observable: melting point

Problem: Recorded melting point for CCNC(=S)NS(=O)(=O)c1cc(CCNC(=O)c2cc(Cl)ccc2OC)ccc1-c1ccccc1 , please?
Solution: 168 to 170 °C

Problem: melting point lookup needed for CNC(=S)NS(=O)(=O)c1cc(CCNC(=O)c2cc(Cl)ccc2OC)ccc1-c1ccco1 , thanks.
Solution: 145 to 146 °C

Problem: Can you share its melting point? I mean this molecule: CNC(=S)NS(=O)(=O)c1cc(CCNC(=O)c2cc(Cl)ccc2OC)ccc1-c1ccc(Cl)cc1
Solution: 189 to 192 °C

Problem: # input molecule: CNC(=O)NS(=O)(=O)c1cc(CCNC(=O)c2cc(Cl)ccc2OC)ccc1-c1ccccn1 ; wanted: its melting point
Solution: 160 °C
